- protocol_notes: MTT assay, cytotoxicity towards non-cancerous MRC-5 fibroblasts
- Type: cell-based, human
- recorded_conditions: human, MRC-5 lung fibroblasts; MRC-5 cells, 24 h, 6 µM; read-out: cell viability
- Protocol: Human urinary bladder grade II carcinoma cell line (5637), human urinary bladder carcinoma (HT-1376), and human lung fibroblasts (MRC-5) were purchased from ATCC (Manassas, VA, USA). The 5637 cells were grown in RPMI, HT-1376 cells were cultured in EMEM, and MRC-5 in DMEM. […] For the preliminary experiments, the 5637 cells were used. […] The absorbance was measured at a wavelength of 570 nm using a plate reader (Biotek Instruments, Elx-800, Winooski, VT, USA). […]
readout_name: viability at 24 h, 6 µM (%)
A number alone suffices; assume %.

Query: For the compound Cc1ccc(-c2ccccc2)n1-c1ccc2oc(-c3ccccc3)cc(=O)c2c1 [4b] , give its measured viability at 24 h, 6 µM value.
Response: 57

----------
- Test system: 5637 cells
- protocol_notes: MTT assay, cytotoxicity towards 5637 bladder cancer cells
- Type: cell-based, human
- recorded_conditions: Homo sapiens, 48 h, MTT
- Method: Human urinary bladder grade II carcinoma cell line (5637), human urinary bladder carcinoma (HT-1376), and human lung fibroblasts (MRC-5) were purchased from ATCC (Manassas, VA, USA). The 5637 cells were grown in RPMI, HT-1376 cells were cultured in EMEM, and MRC-5 in DMEM. […] For the preliminary experiments, the 5637 cells were used. […] The absorbance was measured at a wavelength of 570 nm using a plate reader (Biotek Instruments, Elx-800, Winooski, VT, USA). […]
This section presents molecules with their documented pIC50 values.
Hey, just a heads up that pIC50 is the negative log base 10 of the concentration in molar.

Cc1ccc(-c2ccccc2)n1-c1ccc2oc(-c3ccccc3)cc(=O)c2c1 ... 5.67

Turning now to a further record.
Query: For the molecule "Cc1ccc(-c2ccccc2)n1-c1ccc2c(=O)cc(-c3ccccc3)oc2c1" , give its measured pIC50 value.
Response: 5.34
